Values were extracted from the Deep4Chem optical property database.

assay: solvent given as SMILES; conditions: in C1COCCO1
property: absorption maximum (nm)

[
  {
    "compound": "COC(=O)c1ccc(/C=C2\\C=C(c3ccccc3)OC2=O)cc1",
    "val": 401
  },
  {
    "compound": "CN(C)c1nc(N(C)C)c2nc(C#N)n(Cc3ccccc3)c2n1",
    "val": 345
  },
  {
    "compound": "CCCCCCCN1C(=CC2=C([O-])C(=CC3=[N+](CCCCCCC)c4ccccc4C3(C)C)C2=C(C#N)C#N)C(C)(C)c2ccccc21",
    "val": 689
  },
  {
    "compound": "CCN(CC)c1ccc2cc(/C=C/C3=C4CC/C(=C\\c5cc6ccc(N(CC)CC)cc6oc5=O)C4=[O+][B-](F)(F)O3)c(=O)oc2c1",
    "val": 629
  },
  {
    "compound": "O=C1OC(c2ccccc2)=C/C1=C\\c1ccccc1",
    "val": 442
  },
  {
    "compound": "C#CCN1C(=O)/C(=C/c2cc(OC(C)C)ccc2OC(C)C)N=C1C",
    "val": 396
  },
  {
    "compound": "N#Cc1cc2ccccc2[nH]1",
    "val": 281.6
  },
  {
    "compound": "[C-]#[N+]c1ccc(-c2ccc(N)cc2)cc1",
    "val": 315
  },
  {
    "compound": "CCC1=C(C)C2=C(c3c(C)cc(C)nc3-c3cccs3)c3c(C)c(CC)c(C)n3[B-](F)(F)[N+]2=C1C",
    "val": 533
  },
  {
    "compound": "Cc1ccc2nc(/C=C/c3ccc(N(C)C)cc3)c(-c3ccccc3)nc2c1",
    "val": 430
  },
  {
    "compound": "CN(C)c1ccc(/C=C/c2nc3ccc(Br)cc3nc2-c2ccccc2)cc1",
    "val": 445
  },
  {
    "compound": "c1ccc(-c2nc(-c3ccc(-c4nc(-c5ccccc5)c(-c5ccccc5)o4)cc3)oc2-c2ccccc2)cc1",
    "val": 358
  },
  {
    "compound": "CN1C(=O)/C(=C/c2ccncc2)N=C1/C=C/c1ccccc1",
    "val": 411
  },
  {
    "compound": "CC(=O)c1c2c(cc3cc(N(C)C)ccc13)CCC2",
    "val": 370
  },
  {
    "compound": "CCC1=C(C)C2=C(C)c3c(C)c(-c4csc(N5CCOCC5)n4)c(C)n3[B-](F)(F)[N+]2=C1C",
    "val": 524
  },
  {
    "compound": "CCC(C)(C)c1ccc(-c2ccc(-c3ccc(C(C)(C)CC)cc3)cc2)cc1",
    "val": 289
  },
  {
    "compound": "COc1cc(N(c2ccccc2)c2ccc(C=C(C#N)C#N)c(OC)c2)ccc1C=C(C#N)C#N",
    "val": 464
  },
  {
    "compound": "O=P1(c2ccccc2)C(c2cc(C(F)(F)F)cc(C(F)(F)F)c2)=Cc2c3ccc4cccc5ccc(c6cc(-c7ccccc7)n1c26)c3c45 (stereo unspecified)",
    "val": 448
  },
  {
    "compound": "CCN(CC)c1ccc2cc(/C=C(\\C#N)c3nc4ccccc4o3)c(=O)oc2c1",
    "val": 497
  },
  {
    "compound": "O=C1Nc2ccccc2/C1=C/C(=O)c1ccc(Cl)cc1",
    "val": 335
  },
  {
    "compound": "N#CC(C#N)=Cc1cn(-c2ccccc2)nc1-c1ccc([N+](=O)[O-])cc1",
    "val": 346
  },
  {
    "compound": "Cc1ccc(/C=N/c2cc(C(C)C)c(O)cc2C)cc1",
    "val": 344
  },
  {
    "compound": "CCC1=C(C2=C(C3=C(CC)S(=O)(=O)c4cc(-c5ccc(CO)cc5)ccc43)C(F)(F)C(F)(F)C2(F)F)c2ccc(-c3ccc(CO)cc3)cc2S1(=O)=O",
    "val": 340
  },
  {
    "compound": "c1ccc(-c2ccccc2)cc1",
    "val": 246
  },
  {
    "compound": "Cc1cccc2nc3c(=O)[nH]c(=O)[nH]c3nc12",
    "val": 379
  },
  {
    "compound": "CCOC(=O)/C=C/c1ccc(N(C)C)cc1",
    "val": 359
  },
  {
    "compound": "COc1c2ccccc2c(-c2ccccc2)c2ccccc12",
    "val": 378
  },
  {
    "compound": "O=Cc1cc(C=O)c2ccc3c(N4CCCCC4)cc(N4CCCCC4)c4ccc1c2c43",
    "val": 512
  },
  {
    "compound": "O=C(O)c1c2ccccc2nc2ccccc12",
    "val": 362
  },
  {
    "compound": "CC1(C)c2ccccc2N(c2ccc(-c3n[n+]4c(o3)-c3ccccc3O[B-]4(F)F)cc2)c2ccccc21",
    "val": 361
  },
  {
    "compound": "CC1(C)CC(=O)C2=C(C1)Oc1ccc3ccccc3c1C2c1ccccn1 (stereo unspecified)",
    "val": 274
  },
  {
    "compound": "COC(=O)c1ccc(/C=C2\\C=C(c3ccc(OC)c(OC)c3)NC2=O)cc1",
    "val": 454
  },
  {
    "compound": "CCC12C(=C3C(=C4c5ccc(-c6ccc(C(C)=O)s6)cc5S(=O)(=O)C41CC)C(F)(F)C(F)(F)C3(F)F)c1ccc(-c3ccc(C(C)=O)s3)cc1S2(=O)=O (stereo unspecified)",
    "val": 485
  },
  {
    "compound": "COc1cc(C(=O)O)ccc1O",
    "val": 290
  },
  {
    "compound": "CCCCCCCN1C(=CC2=C([O-])C(=Cc3sc4ccccc4[n+]3CCCCCCC)C2=C(C#N)C#N)Sc2ccccc21",
    "val": 709
  },
  {
    "compound": "CC(=O)c1c2c(cc3c(N(C)C)cccc13)CCC2",
    "val": 319
  },
  {
    "compound": "Clc1nc(Nc2ccccc2)nc(Nc2ccc3c4cccc5cccc(c6cccc2c63)c54)n1",
    "val": 444
  },
  {
    "compound": "C(/C=C/c1ccc(N(c2ccccc2)c2ccccc2)cc1)=C\\c1ccncc1",
    "val": 395
  },
  {
    "compound": "O=C1NC(=O)/C(=C\\c2ccccc2O)S1",
    "val": 350
  },
  {
    "compound": "CCC(=O)c1ccc2cc(N(C)C)ccc2c1",
    "val": 348
  },
  {
    "compound": "CC\\C=C/C=C/C=C/C=C\\CCCCCCCC(=O)O",
    "val": 322.7
  }
]

====

assay: solvent given as SMILES; conditions: in c1ccccc1

[
  {
    "compound": "Nc1ccc2c(c1)-c1ccccc1C2=O",
    "absorption maximum (nm)": 395
  },
  {
    "compound": "CCC1=C(C)C(=O)n2c1cc1c(CCC(=O)O)c(C)c(C)n1c2=O",
    "absorption maximum (nm)": 419
  },
  {
    "compound": "COC(=O)c1ccc(-c2nc3ccc(N(C)C)cc3s2)cc1",
    "absorption maximum (nm)": 394
  },
  {
    "compound": "O=C1/C(=C/C=C/c2cc3c4c(c2)CCCN4CCC3)CC/C1=C\\C=C\\c1cc2c3c(c1)CCCN3CCC2",
    "absorption maximum (nm)": 510
  },
  {
    "compound": "c1csc(-c2cnc(-c3cccs3)c3nonc23)c1",
    "absorption maximum (nm)": 465
  },
  {
    "compound": "O=C1c2ccccc2NC(c2ccccc2)N1Cc1ccccc1 (stereo unspecified)",
    "absorption maximum (nm)": 334
  }
]

====

assay: solvent given as SMILES; conditions: in ClC(Cl)Cl
I would appreciate it if you labelled entries satisfied when absorption maximum is 400 nm or higher, otherwise not satisfied.

[
  {
    "smiles.data": "CC(C)(C)c1ccc2c(c1)oc1nc3oc4ccc(-n5c6ccccc6c6ccccc65)cc4c3cc12",
    "class.label": "not satisfied"
  },
  {
    "smiles.data": "COc1ccc(-c2ccc(-c3c4c(nc5ccccc35)-c3cc5c(cc3CC4)-c3nc4ccccc4c(-c4ccc(-c6ccc(OC)cc6)cc4)c3CC5)cc2)cc1",
    "class.label": "not satisfied"
  },
  {
    "smiles.data": "C/C(=N\\Nc1ccc(C#N)cc1)c1ccccn1",
    "class.label": "not satisfied"
  },
  {
    "smiles.data": "N#Cc1c(C#N)c2cc(F)ccc2c2ccc(F)cc12",
    "class.label": "not satisfied"
  },
  {
    "smiles.data": "CC[Si](C)(C)c1cc2ccc3cccc4ccc(c1C(=O)NC(C)(C)C)c2c34",
    "class.label": "not satisfied"
  },
  {
    "smiles.data": "CCCCCCN1C(=O)c2cccc3cc(/N=C\\c4ccc(N(c5ccccc5)c5ccccc5)cc4)cc(c23)C1=O",
    "class.label": "not satisfied"
  },
  {
    "smiles.data": "CC1(C)c2ccccc2N(c2ccc(-c3n[n+]4c(o3)-c3ccccc3O[B-]4(F)F)cc2)c2ccccc21",
    "class.label": "not satisfied"
  },
  {
    "smiles.data": "CCCCN1C(=O)c2cc(Br)c3c4c(Br)cc5c6c(cc(Br)c(c7c(Br)cc(c2c37)C1=O)c64)C(=O)N(CCCC)C5=O",
    "class.label": "satisfied"
  },
  {
    "smiles.data": "CCCCCCC(CCCCCC)N1C(=O)c2cccc3c(-c4ccc(C#N)cc4)ccc(c23)C1=O",
    "class.label": "not satisfied"
  },
  {
    "smiles.data": "COc1ccc(-c2cc(-c3ccc(C)cc3)c(C#N)c(OC)n2)cc1",
    "class.label": "not satisfied"
  },
  {
    "smiles.data": "CC1=CC(C)=[N+]2C1=C(c1ccc(I)cc1)c1c(C)cc(C)n1[B-]2(OCc1ccccc1)OCc1ccccc1",
    "class.label": "satisfied"
  },
  {
    "smiles.data": "C(#Cc1ccccc1)C(C#Cc1ccccc1)=Cc1cccc(C=C(C#Cc2ccccc2)C#Cc2ccccc2)c1",
    "class.label": "not satisfied"
  },
  {
    "smiles.data": "CN(C)c1ccc(C2=Cc3ccc4ccccc4[n+]3[B-](F)(F)O2)cc1",
    "class.label": "satisfied"
  },
  {
    "smiles.data": "CCCCCCCCCCOc1cc(OCCCCCCCCCC)cc(C2=C3C(C)=CC(/C=C/c4ccc(OC)cc4)=[N+]3[B-](F)(F)n3c(/C=C/c4ccc(OC)cc4)cc(C)c32)c1",
    "class.label": "satisfied"
  },
  {
    "smiles.data": "CC(C)(C)c1ccc2oc3nc4oc5ccc(-n6c7ccc(C(C)(C)C)cc7c7cc(C(C)(C)C)ccc76)cc5c4cc3c2c1",
    "class.label": "not satisfied"
  },
  {
    "smiles.data": "COc1ccc(-c2nc(-c3ccccc3)c(N(C)C)[se]2)cc1",
    "class.label": "not satisfied"
  }
]
